Recorded Cutaneous Toxicity Score (Blackjack Score) by entry
tested on: skin of hairless mice; experiment: topical skin irritation test in hairless mice; format: in vivo, female hairless mice (Crl:SKH1-hrBR); conditions: 1000 nmole, once daily days 1 through 5, mean±SD
Property Label: Cutaneous Toxicity Score (Blackjack Score)

[
  {
    "Compound": "CC1(C)CC(C)(C)c2cc(C#Cc3ccc(CC(=O)O)c(F)c3)cc(C3CC3)c2O1 [Compound 38]",
    "Observed": 10
  },
  {
    "Compound": "CC1(C)CC2(CC2)Oc2c(C3CC3)cc(C#Cc3ccc(CC(=O)O)c(F)c3)cc21 [Compound 50]",
    "Observed": 8
  },
  {
    "Compound": "CC1(C)CC2(CC2)Oc2c(C3CC3)cc(C#Cc3ccc(CC(=O)O)cc3)cc21 [Compound 48]",
    "Observed": 7
  },
  {
    "Compound": "CC1(C)CN(C2CC2)Cc2ccc(C#Cc3ccc(CC(=O)O)c(F)c3)cc21 [Compound 22]",
    "Observed": 1
  },
  {
    "Compound": "CN(C1CC1)C1CCC(C)(C)c2cc(C#Cc3ccc(CC(=O)O)cc3)ccc21 (centres unmarked) [Compound 8]",
    "Observed": 12
  },
  {
    "Compound": "CC1(C)CC(C)(C)c2cc(C#Cc3ccc(CC(=O)O)cc3)cc(C3CC3)c2O1 [Compound 36]",
    "Observed": 11
  },
  {
    "Compound": "CC1(C)CCC(n2ccnc2)c2ccc(C#Cc3ccc(CC(=O)O)cc3)cc21 (centres unmarked) [Compound 137]",
    "Observed": 5
  },
  {
    "Compound": "CC1(C)CC2(CC2)Oc2c(C3CC3)cc(C(=O)Oc3ccc(CC(=O)O)cc3)cc21 [Compound 58]",
    "Observed": 0
  }
]

----------
System: RARγ
Assay: chimeric receptor transactivation assay, RARγ
Type: cell-based
Conditions: unit assumed
Description: Assays described below measure the ability of a compound to bind to, and/or activate various retinoid receptor subtypes. When in these assays a compound binds to a given receptor subtype and activates the transcription of a reporter gene through that subtype, then the compound is considered an agonist of that receptor subtype. […]
Measured (EFFICACY) RAR γ values are reported for all entries that follow.
Property Label: (EFFICACY) RAR γ (%)

[
  {
    "Compound": "Cc1cc(C#Cc2ccc(C(=O)O)cc2)ccc1C1(OC(C)C)CC1",
    "Property Label": "(EFFICACY) RAR γ",
    "Units Symbol": "%",
    "Observed": 65
  },
  {
    "Compound": "CC(C)OC1(c2ccc(C#Cc3ccc(C(=O)O)cc3)cc2)CC1",
    "Property Label": "(EFFICACY) RAR γ",
    "Units Symbol": "%",
    "Observed": 24
  },
  {
    "Compound": "CN(C1CC1)C1CCC(C)(C)c2cc(C#Cc3ccc(C(=O)O)c(F)c3)ccc21 (centres unmarked)",
    "Property Label": "(EFFICACY) RAR γ",
    "Units Symbol": "%",
    "Observed": 9
  },
  {
    "Compound": "CC1(C)CC2(CC2)Oc2ccc(C#Cc3ccc(C(=O)O)cc3)cc21",
    "Property Label": "(EFFICACY) RAR γ",
    "Units Symbol": "%",
    "Observed": 140
  },
  {
    "Compound": "Cc1cc(C#Cc2ccc(C(=O)O)cc2)ccc1C1(OCc2ccccc2)CC1",
    "Property Label": "(EFFICACY) RAR γ",
    "Units Symbol": "%",
    "Observed": 67
  }
]

meta.source: patent US6291677A
